What MIC90 was measured for each of the following?
System: Staphylococcus aureus Rosenbach (ATCC 25923)
assay info: Antibacterial microbroth dilution MIC/MBC against S. aureus
Assay type: cell-based
condition notes: Staphylococcus aureus, ATCC25923; S. aureus Rosenbach ATCC 25923; Figure 5; read-out: MIC (IC90) / minimal inhibitory concentration (MIC90)
Method: The minimum inhibition concentration (MIC) and the minimum bactericidal/fungicidal concentration (MBC/MFC) were carried out using the microbroth dilution method according to the Clinical Laboratory Standards Institute (CLSI) guidelines, with some modifications. […] Any Cytotoxic effect was detected with PrestoBlue™ cell viability reagent (ThermoFisher Scientific, Waltham, MA, USA). The cells were read with a fluorescence reading at an excitation of 560 nm and an emission 590 nm. […]

Which MIC90 reading was recorded for the compound "CNC(=O)C[C@@H]1NC(=O)c2csc(n2)-c2ccc(-c3nc(C(=O)N[C@@H](CO)C(=O)N4CCC[C@H]4C(N)=O)cs3)nc2-c2csc(n2)-c2csc(n2)[C@H]([C@@H](O)c2ccccc2)NC(=O)CNC(=O)c2csc(n2)[C@H](C(C)C)NC(=O)c2nc1sc2C" ?
> 70 µM

Next entry: CNC(=O)CC1NC(=O)c2csc(n2)-c2ccc(-c3nc(C4=NC(C(=O)N5CCCC5C(=O)O)CO4)cs3)nc2-c2csc(n2)-c2csc(n2)C(C(O)c2ccccc2)NC(=O)CNC(=O)c2csc(n2)C(C(C)C)NC(=O)c2csc1n2 (stereo not drawn)
> 70 µM

What do you have for CNC(=O)CC1NC(=O)c2csc(n2)-c2ccc(-c3nc(C4=NC(C(=O)N5CCCC5C(=O)O)CO4)cs3)nc2-c2csc(n2)-c2csc(n2)C(C(O)c2ccccc2)NC(=O)CNC(=O)c2nc(sc2COC)C(C(C)C)NC(=O)c2csc1n2 (stereo not drawn) ?
> 70 µM
